# ASSAY TARGET: Coagulation factor X (Homo sapiens) (UniProt P00742)
# Sequence (P00742 41-179 limits assumed): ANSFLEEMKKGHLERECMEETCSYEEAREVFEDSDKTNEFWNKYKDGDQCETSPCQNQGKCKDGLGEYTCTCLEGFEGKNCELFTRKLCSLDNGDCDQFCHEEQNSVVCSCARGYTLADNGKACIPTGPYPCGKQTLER
# Sequence (P00742 235-488 limits assumed): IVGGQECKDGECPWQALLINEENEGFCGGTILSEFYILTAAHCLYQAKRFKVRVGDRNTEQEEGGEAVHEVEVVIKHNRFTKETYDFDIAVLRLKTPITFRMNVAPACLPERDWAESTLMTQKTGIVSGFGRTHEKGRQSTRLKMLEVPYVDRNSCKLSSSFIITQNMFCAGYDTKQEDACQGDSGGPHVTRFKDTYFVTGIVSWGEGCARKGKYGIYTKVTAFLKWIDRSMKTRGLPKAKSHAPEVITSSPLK
# PROCEDURE SUMMARY: Inhibition of human F10a activity in absence of human plasma antithrombin
Calls of active or inactive are those of the source. No cut-off for these calls is given here.
QUANTITY NAME: inhibition

Here is how some molecules turned out for inhibition.
- MOLECULE: "O=C([O-])C1Cc2cc(OS(=O)(=O)[O-])c(OS(=O)(=O)[O-])cc2CN1C(=O)CCCc1cc(OS(=O)(=O)[O-])ccc1OS(=O)(=O)[O-].[Na+].[Na+].[Na+].[Na+].[Na+] (stereo not given)"
  RESULT: "inactive"
- MOLECULE: "O=C([O-])C1Cc2c(OS(=O)(=O)[O-])ccc(OS(=O)(=O)[O-])c2CN1C(=O)CCc1cc(OS(=O)(=O)[O-])ccc1OS(=O)(=O)[O-].[Na+].[Na+].[Na+].[Na+].[Na+] (stereo not given)"
  RESULT: "inactive"
- MOLECULE: "O=C(Cc1cc(OS(=O)(=O)[O-])ccc1OS(=O)(=O)[O-])N1CCc2cc(OS(=O)(=O)[O-])c(OS(=O)(=O)[O-])cc2C1.[Na+].[Na+].[Na+].[Na+]"
  RESULT: "inactive"
- MOLECULE: "O=C([O-])C1Cc2c(OS(=O)(=O)[O-])ccc(OS(=O)(=O)[O-])c2CN1C(=O)Cc1cc(OS(=O)(=O)[O-])ccc1OS(=O)(=O)[O-].[Na+].[Na+].[Na+].[Na+].[Na+] (stereo not given)"
  RESULT: "inactive"

Lab note: next molecule to report on.
Quick check: inhibition of O=C([O-])C1Cc2cc(OS(=O)(=O)[O-])c(OS(=O)(=O)[O-])cc2CN1C(=O)Cc1cc(OS(=O)(=O)[O-])ccc1OS(=O)(=O)[O-].[Na+].[Na+].[Na+].[Na+].[Na+] (stereo not given) ? inactive

###

# Species on record: Homo sapiens
# PROCEDURE SUMMARY: Activation of human plasma antithrombin assessed as acceleration of antithrombin-mediated human F10a inhibition at pH 6.0, 25 mM NaCl and 25 degC using spectrophotometry based discontinuous slow kinetic assay relative to untreated control
# Assay type: cell-free
Below, each of the molecules is paired with its reported PF value.

Please review the following examples before continuing.
- MOLECULE: "O=C(Cc1cc(OS(=O)(=O)[O-])ccc1OS(=O)(=O)[O-])N1CCc2cc(OS(=O)(=O)[O-])c(OS(=O)(=O)[O-])cc2C1.[Na+].[Na+].[Na+].[Na+]"
  PF: 11
- MOLECULE: "O=C(CCCc1cc(OS(=O)(=O)[O-])ccc1OS(=O)(=O)[O-])N1CCc2c(ccc(OS(=O)(=O)[O-])c2OS(=O)(=O)[O-])C1.[Na+].[Na+].[Na+].[Na+]"
  PF: 8.3
- MOLECULE: "CO[C@H]1O[C@H](COS(=O)(=O)O)[C@@H](O[C@@H]2O[C@@H](C(=O)O)[C@@H](O[C@H]3O[C@H](COS(=O)(=O)O)[C@@H](O[C@@H]4O[C@H](C(=O)O)[C@@H](O[C@H]5O[C@H](COS(=O)(=O)O)[C@@H](O)[C@H](O)[C@H]5NS(=O)(=O)O)[C@H](O)[C@H]4O)[C@H](OS(=O)(=O)O)[C@H]3NS(=O)(=O)O)[C@H](O)[C@H]2OS(=O)(=O)O)[C@H](O)[C@H]1NS(=O)(=O)O [FONDAPARINUX SODIUM]"
  PF: 300
- MOLECULE: "O=C([O-])C1Cc2c(OS(=O)(=O)[O-])ccc(OS(=O)(=O)[O-])c2CN1C(=O)CCCc1cc(OS(=O)(=O)[O-])ccc1OS(=O)(=O)[O-].[Na+].[Na+].[Na+].[Na+].[Na+] (stereo not given)"
  PF: 79.4
- MOLECULE: "O=C([O-])C1Cc2cc(OS(=O)(=O)[O-])c(OS(=O)(=O)[O-])cc2CN1C(=O)Cc1cc(OS(=O)(=O)[O-])ccc1OS(=O)(=O)[O-].[Na+].[Na+].[Na+].[Na+].[Na+] (stereo not given)"
  PF: 53.2
- MOLECULE: "O=S(=O)(O)Oc1cc2c(c(OS(=O)(=O)O)c1)C[C@@H](OS(=O)(=O)O)[C@@H](c1ccc(OS(=O)(=O)O)c(OS(=O)(=O)O)c1)O2"
  PF: 7.6
- MOLECULE: "O=C([O-])C1Cc2c(OS(=O)(=O)[O-])ccc(OS(=O)(=O)[O-])c2CN1C(=O)Cc1cc(OS(=O)(=O)[O-])ccc1OS(=O)(=O)[O-].[Na+].[Na+].[Na+].[Na+].[Na+] (stereo not given)"
  PF: 67.1
- MOLECULE: "O=C([O-])C1Cc2cc(OS(=O)(=O)[O-])c(OS(=O)(=O)[O-])cc2CN1C(=O)CCCc1cc(OS(=O)(=O)[O-])ccc1OS(=O)(=O)[O-].[Na+].[Na+].[Na+].[Na+].[Na+] (stereo not given)"
  PF: 23.7

// query PF value for entry O=C([O-])C1Cc2c(OS(=O)(=O)[O-])ccc(OS(=O)(=O)[O-])c2CN1C(=O)CCc1cc(OS(=O)(=O)[O-])ccc1OS(=O)(=O)[O-].[Na+].[Na+].[Na+].[Na+].[Na+] (stereo not given) 29.3

What about this molecule? O=C([O-])C1Cc2cc(OS(=O)(=O)[O-])c(OS(=O)(=O)[O-])cc2CN1C(=O)CCc1cc(OS(=O)(=O)[O-])ccc1OS(=O)(=O)[O-].[Na+].[Na+].[Na+].[Na+].[Na+] (stereo not given) 16.5
